Tested on: MOLT-4 leukemia
Assay: NCI-60 one-dose screen, 48 h (100 = growth as untreated, 0 = no growth, -100 = all killed)
Conditions: 10 µM unless noted
Procedure: Growth inhibition of the MOLT-4 human tumor cell line is measured as a screen for anti-cancer activity. Cells are grown in 96 well plates and exposed to the test compound for 48 hours. Compounds are tested at a single concentration, which is 10^-5 M for most compounds. The reported endpoint is percent growth (GI% or GIPRCNT), where numbers from 0 - 100% represent growth inhibition, and numbers from -100% - 0 represent cell death. For example, a value of 40 represents 60% growth inhibition. […]
The panel holds about 83,000 compounds, 20% with a hit somewhere; the sample as a whole holds those more often.
ATTRIBUTE MEASURED: growth (%)
Quick note: give the figure in %, leave out the unit.

Challenge: Give the reported value of growth for this record: CN(CCC#N)c1ccc(/C=C(\C#N)c2cccc(C(F)(F)F)c2)cc1
Response given: 53.8

Challenge: Give the reported value of growth for this record: CC(=O)Nc1nc(C)c(C(=O)N/N=C/c2cccs2)s1
Response given: 84.1

Challenge: Give the reported value of growth for this record: CCC(C)C1NC(=O)C(CC(C)C)NC(=O)C(C)NC(=O)C(C(C)C)NC(=O)C(CCCCN)NC(=O)C(CC(C)C)NC(=O)C(C(C)C)NC(=O)[C@H](C)NC(=O)C(C(C)CC)NC(=O)C(CCCN=C(N)N)NC(=O)C(CCCCN)NC(=O)C(CCCN=C(N)N)NC(=O)C(CCCCN)NC(=O)C([C@H](C)CC)NC(=O)C(CCCCN)NC1=O (some centres not stated)
Response given: -6.28

Challenge: Give the reported value of growth for this record: COc1ccc2c(c1)/C(=C1/S/C(=N/c3nnc(C)s3)NC1=O)C(=O)N2Cc1ccc(Br)cc1
Response given: 20.7

Challenge: Give the reported value of growth for this record: COc1cc(-c2nn(-c3ccc(NC(=O)c4ccc(Cl)c(Cl)c4)cc3)cc2-c2ccncc2)ccc1Cl
Response given: 28.7

Challenge: Give the reported value of growth for this record: NCCCOc1cc(Cl)ccc1NC(=O)c1cc2ccccc2cc1OCCCN
Response given: -52.3

Challenge: Give the reported value of growth for this record: CCCCCCCCCCCCCCCCCC(=O)Nc1ccc(O)cc1
Response given: 26.7

Challenge: Give the reported value of growth for this record: Cc1ccc(C(=O)Nc2ccc(CN3CCN(C)CC3)c(C(F)(F)F)c2)cc1C#Cc1cnc(N)c2ccc(F)cc12
Response given: -67.1

Challenge: Give the reported value of growth for this record: Cc1nc(NC(=O)NC2CCCCC2)sc1C(=O)NN
Response given: 116

Challenge: Give the reported value of growth for this record: [2H]c1nc(=Nc2cc(NC(=O)C=C)c(N(C)CCN(C)C)cc2OC)[nH]c(-c2cn(C([2H])([2H])[2H])c3ccccc23)c1[2H]
Response given: 13.3

Challenge: Give the reported value of growth for this record: CSC1=Nc2c(c(C)c(-c3ccccc3)n2CCCCl)C2=NC(=O)CN12
Response given: 50.6

Challenge: Give the reported value of growth for this record: CCCCCCCCCc1cc[n+](CC(=O)c2ccc([N+](=O)[O-])cc2)cc1
Response given: 1.62

Challenge: Give the reported value of growth for this record: CCOc1ccccc1/C=N\N=C(N/N=C/c1ccccc1OCC)N/N=C/c1ccccc1OCC
Response given: 27.7

Challenge: Give the reported value of growth for this record: CCOC(=O)C1=C(C(F)(F)F)NC(=S)NC1CN1C(=O)c2ccccc2C1=O (configuration not stated)
Response given: 93.7

Challenge: Give the reported value of growth for this record: COc1ccc(CN2C(=O)/C(=C\C(=O)c3ccc(OCCN4CCCC4)cc3)c3ccccc32)cc1
Response given: 5.57

Challenge: Give the reported value of growth for this record: N=C(N)N=Nc1ccc(NN=C(N)N)c2ccccc12
Response given: 97.1

Challenge: Give the reported value of growth for this record: COc1cc([C@@H]2c3cc4c(cc3[C@H](O)[C@H]3COC[C@@H]23)OCO4)cc(OC)c1OC
Response given: 76.6
